# System: V106I/F227C/H221Y mutant
# Protocol Text: Susceptibility of SDM derived DOR-resistant mutant to NRTIs, Example 1
# Assay type: cell-based, HIV-1
# Test Conditions: Human immunodeficiency virus 1, read-out: Antiviral Potency
# Excerpt: Common doravirine-associated mutants containing F227C substitution were derived from SDM.
Assay Metric: pEC50
The meaning of pEC50 here: minus log10 of the concentration in molar units.

[
  {
    "Compound": "C#C[C@]1(CO)O[C@@H](n2cnc3c(N)nc(F)nc32)C[C@@H]1O",
    "pEC50": 9.40
  }
]

From here, focus on the item given below.
The measured pEC50 associated with Nc1ccn([C@@H]2CS[C@H](CO)O2)c(=O)n1 [3TC, lamivudine, reference compound] reads 6.12
